conditions: pH 8.0

givenSmiles: CC[C@H]1CS/C(=N\c2cccc(C)c2)N1C(=O)CCN1C(=O)c2ccccc2C1=O
logD: 4.96
//
givenSmiles: CCc1cccc(C)c1N(C(=O)Cn1c([C@@H](C)O)nc2ccccc21)[C@@H](C)COC
logD: 4.48
//
givenSmiles: COC(=O)c1c(N[C@@H](NC(C)=O)C(Cl)(Cl)Cl)sc2c1CCCC2
logD: 5.04
//
givenSmiles: CC(=O)N(c1ccccc1)c1nc(/C=C/C(=O)Nc2ccc3c(c2)OCO3)cs1
logD: 4.37
//
givenSmiles: COc1ccc([C@@H](C)n2c(C)c3c(C)nnc(C)c3c2C)cc1
logD: 3.43
//
givenSmiles: COc1ccc([C@@H]2Nc3ccccc3C(=O)N2c2ccccc2)cc1COc1ccc(NC(C)=O)cc1
logD: 4.65
//
givenSmiles: Cc1sc2ncn(CC(=O)N[C@@H]3CCC[C@@H](C)[C@H]3C)c(=O)c2c1C
logD: 4.34
//
givenSmiles: OC[C@H]1CCCN(c2ncnc3scc(-c4ccccc4)c23)C1
logD: 3.9
//
givenSmiles: COc1cc(/C=C/C(=O)Nc2ccc(N3CCCCC3)cc2)ccc1OC(F)F
logD: 5.36
//
givenSmiles: COC(=O)CSc1nc(NCC(C)C)nc(N2CCOCC2)n1
logD: 3.75
//
givenSmiles: CCCc1[nH]nc2c1[C@@]1(C(=O)N(CC(N)=O)c3ccccc31)C(C(=O)OC)=C(N)O2
logD: 4.48

---

conditions: pH 6.0

compound: CC1=C(C(=O)N2CCCCC2)C(c2cccs2)C2=C(O)CCCC2=N1 (stereo unspecified)
logD: 3.37

---

details: pH 5.0
Please use TRUE whenever logD is not below 4, and FALSE whenever it is.

givenSmiles: CC[C@]1(C)NC(=S)N2N1C(=S)N[C@@]2(C)CC
group: FALSE

givenSmiles: CC(C)C(=O)N[C@H](Oc1ccc(C=O)cc1)C(Cl)(Cl)Cl
group: FALSE

givenSmiles: COC(=O)c1ccc([C@@H]2C3=C(C[C@H](c4ccco4)CC3=O)Nc3ccccc3N2C(=O)C2CC2)cc1
group: TRUE

givenSmiles: CCOc1ccc(C[C@H]2c3cc(OCC)c(OCC)cc3CCN2C(=O)c2scnc2C)cc1OCC
group: TRUE

givenSmiles: O=C(c1sc2cc(Cl)ccc2c1Cl)N1CCN(C(=S)NC[C@H]2CCCO2)CC1
group: TRUE

givenSmiles: COc1ccc([C@@H]2C3=C(C[C@H](c4ccco4)CC3=O)Nc3ccccc3N2C(=O)C(F)(F)F)cc1
group: TRUE

givenSmiles: COc1cc(/C=N\n2cnc3sc4c(c3c2=O)CCCC4)ccc1OCc1ccccc1
group: TRUE

givenSmiles: CCCC(=O)NC[C@@H](C)NC(=O)CCC
group: FALSE

givenSmiles: Cc1cccc(NC(=O)NC(C)C)c1C
group: FALSE

givenSmiles: O=C1CC[C@H]2CCCC[C@@]2(O)O1
group: FALSE

---

Item-by-item account of logD
conditions: pH 7.0

givenSmiles: Cn1c([C@@H](C#N)C(=O)[C@@H](Sc2ccccc2)c2ccccc2)nc2ccccc21
logD: 5.28
//
givenSmiles: CC(=O)Nc1ccc([C@H]2C(C#N)=C(N)Oc3c2c(C)nn3-c2cccc(Cl)c2)cc1
logD: 4.93
//
givenSmiles: Cc1ccc(N[C@H]2O[C@@H](CO)[C@H](O)[C@@H](O)[C@H]2O)cc1Br
logD: 2.28
//
givenSmiles: O=C(/C=C/c1ccccc1)Nc1ccc(N2CCN(C(=O)c3cccs3)CC2)cc1
logD: 4.94
